The entries below come with measured Activity values attached.
System: Salmonella typhimurium
assay protocol: Mutagenic activity in Salmonella Typhimurium TA102 assessed as number of his+ revertants at 1000 ug/plate after 48 to 72 hrs by Ames test in presence of S9 fraction
Type: toxicity, organism-based
condition details: salmonella enterica subsp. enterica serovar typhimurium
Give the figure only, with no unit attached.

>>> df
                              smiles_string  reported
0                  C/C=C/c1c(OC)cc(OC)cc1OC       218
1                C/C=C/c1cc(OC)c(OC)c(OC)c1       165
2  C/C=C/c1c(OC)ccc(OC)c1OC.CC(C)CCC[C@@H](C)[C@H]1CC[C@H]2[C@@H]3CC=C4C[C@@H](O)CC[C@]4(C)[C@H]3CC[C@]12C        49

Then this compound:
Sure, the documented Activity for C/C=C/c1ccc(OC)c(OC)c1OC is 233
